test system: T-47D Tam2; assay: relative IC50 (midpoint of fitted logistic curve, plateau may be below 50% inhibition; CellTiter-Glo viability); higher = less potent; details: 4-OH-tamoxifen in medium 1 µM; 72 h
value-kind: relative IC50

CC(=O)OC[C@H]1O[C@@H]([S-])[C@H](OC(C)=O)[C@@H](OC(C)=O)[C@@H]1OC(C)=O.CCP(CC)CC.[Au+] : 584 nM
CC[C@]1(O)C[C@H]2CN(CCc3c([nH]c4ccccc34)[C@@](C(=O)OC)(c3cc4c(cc3OC)N(C=O)[C@H]3[C@@](O)(C(=O)OC)[C@H](OC(C)=O)[C@]5(CC)C=CCN6CC[C@]43[C@@H]65)C2)C1 : 26.8 nM
CN(C)CCOc1ccc(/C(=C(/CCCl)c2ccccc2)c2ccccc2)cc1 [Toremifene (citrate)] : 3460 nM
O=C(CCCCCCC(=O)Nc1ccccc1)NO : 3060 nM
C/C(=C\c1csc(C)n1)[C@@H]1C[C@@H]2O[C@]2(C)CCC[C@H](C)[C@H](O)[C@@H](C)C(=O)C(C)(C)[C@@H](O)CC(=O)O1 [Patupilone (Epothilone B)] : 14.7 nM
COc1ccc(-c2ccc3c(N4CCOC[C@@H]4C)nc(N4CCOC[C@@H]4C)nc3n2)cc1CO : 227 nM

====

tested on: BT-474; assay: drug sensitivity score (DSS) (DSS (dimensionless)); higher = more sensitive; extreme values may be limits of the assay; details: 4-OH-tamoxifen in medium 1 µM; 72 h
Counter-ions that a name gives are not always drawn.
value-kind: drug sensitivity score

N#CCNC(=O)c1ccc(-c2ccnc(Nc3ccc(N4CCOCC4)cc3)n2)cc1 : 0
CN(Cc1cnc2nc(N)nc(N)c2n1)c1ccc(C(=O)N[C@@H](CCC(=O)O)C(=O)O)cc1 [Methotrexate] : 0
Cc1ccc([N+](=O)[O-])cc1S(=O)(=O)N(C)/N=C/c1cnc2ccc(Br)cn12 [PIK-75 (HCl)] : 27.2
NC(=O)NO [Hydroxyurea] : 0.154
Cn1cnc2c(F)c(Nc3ccc(Br)cc3F)c(C(=O)NOCCO)cc21 : 1.07
O=C(c1cc(Cc2n[nH]c(=O)c3ccccc23)ccc1F)N1CCN(C(=O)C2CC2)CC1 : 0
CN1CCN(CCOc2cc(OC3CCOCC3)c3c(Nc4c(Cl)ccc5c4OCO5)ncnc3c2)CC1 : 9.8

====

system: BT-474 Tam1; experiment: drug sensitivity score (DSS) (DSS (dimensionless)); higher = more sensitive; extreme values may be limits of the assay; settings: 4-OH-tamoxifen in medium 1 µM; 72 h
value-kind: drug sensitivity score

N#CCNC(=O)c1ccc(-c2ccnc(Nc3ccc(N4CCOCC4)cc3)n2)cc1 : 1.15
CC1(C)CCC(c2ccc(Cl)cc2)=C(CN2CCN(c3ccc(C(=O)NS(=O)(=O)c4ccc(N[C@H](CCN5CCOCC5)CSc5ccccc5)c(S(=O)(=O)C(F)(F)F)c4)cc3)CC2)C1 : 2.79
O=C(c1cc(Cc2n[nH]c(=O)c3ccccc23)ccc1F)N1CCN(C(=O)C2CC2)CC1 : 0.0009
CN1CCN(CCOc2cc(OC3CCOCC3)c3c(Nc4c(Cl)ccc5c4OCO5)ncnc3c2)CC1 : 10.8
CCC1(c2ccc(N)cc2)CCC(=O)NC1=O (configuration not stated) [Aminoglutethimide] : 0
Cc1cc(Nc2cc(CN3CCOCC3)c3nc(C)c(Cc4ccc(Cl)cc4F)n3n2)n[nH]1 : 16.2
CC[C@@]1(O)C(=O)OCc2c1cc1n(c2=O)Cc2cc3ccccc3nc2-1 : 0
CN1CC[C@H](c2c(O)cc(O)c3c(=O)cc(-c4ccccc4Cl)oc23)[C@H](O)C1 : 19.8
O=C1c2c(O)ccc(O)c2C(=O)c2c(NCCNCCO)ccc(NCCNCCO)c21 : 0
CCc1cncnc1N1CCN(Cc2nc3ccc(C(F)(F)F)cc3[nH]2)CC1 : 3.7
C[C@@H]1C[C@H]2[C@@H]3CCC4=CC(=O)C=C[C@]4(C)[C@@]3(F)[C@@H](O)C[C@]2(C)[C@@]1(O)C(=O)CO : 0
O=C(O)CCCc1ccc(N(CCCl)CCCl)cc1 : 0

====

system: BT-474 Tam1; test: viability inhibition at highest dose (% inhibition); higher = more growth inhibition; details: 4-OH-tamoxifen in medium 1 µM; 72 h
Where a name gives a salt, the structure may show the parent alone.
value-kind: viability inhibition at highest dose

Cc1[nH]c2ccccc2c1CCNCc1ccc(/C=C/C(=O)NO)cc1 [Panobinostat] (drug 1000 nM) : 84.4
COc1cccc2cc(-c3nc([C@H]4CC[C@H](C(=O)O)CC4)n4ncnc(N)c34)[nH]c12 [OSI-027] (drug 10000 nM) : 38.1
CC[C@@]1(O)C(=O)OCc2c1cc1n(c2=O)Cc2cc3c(CN(C)C)c(O)ccc3nc2-1 [Topotecan] (drug 1000 nM) : 4.54
C[C@]12CC[C@H](O)CC1=CC[C@@H]1[C@@H]2CC[C@]2(C)C(c3cccnc3)=CC[C@@H]12 [Abiraterone (CB-7598)] (drug 5000 nM) : 6.31
Cc1sc2c(c1C)C(c1ccc(Cl)cc1)=N[C@@H](CC(=O)OC(C)(C)C)c1nnc(C)n1-2 [(+)JQ1] (drug 10000 nM) : 75
O=C(CCCCCCC(=O)Nc1ccc([C@H]2O[C@@H](CSc3nc(-c4ccccc4)c(-c4ccccc4)o3)C[C@@H](c3ccc(CO)cc3)O2)cc1)NO [Tubacin] (drug 10000 nM) : 21.5
Nc1nc2[nH]cnc2c(=S)[nH]1 [Thioguanine] (drug 10000 nM) : 28.5
COc1ccccc1S(=O)(=O)Nc1ccc2c(c1)CN(C)C(=O)N2 [PFI-1] (drug 10000 nM) : 25.7
Cc1cnc(NC(=O)Nc2cc(Br)c(C)cc2OC[C@@H]2CNCCO2)cn1 (drug 1000 nM) : 5
CO[C@H]1C[C@@H]2CC[C@@H](C)[C@@](O)(O2)C(=O)C(=O)N2CCCC[C@H]2C(=O)O[C@H]([C@H](C)C[C@@H]2CC[C@@H](OCCO)[C@H](OC)C2)CC(=O)[C@H](C)/C=C(\C)[C@@H](O)[C@@H](OC)C(=O)[C@H](C)C[C@H](C)/C=C/C=C/C=C/1C [Everolimus] (drug 100 nM) : 22.1
CC(O)(CS(=O)(=O)c1ccc(F)cc1)C(=O)Nc1ccc(C#N)c(C(F)(F)F)c1 (stereo unspecified) [Bicalutamide] (drug 10000 nM) : -10.4
CC(C)C[C@@H](C(=O)N[C@H](C(=O)OC1CCCC1)c1ccccc1)[C@H](O)C(=O)NO [Tosedostat (CHR 2797)] (drug 10000 nM) : 34.7
Cn1c(=O)n(-c2ccc(C(C)(C)C#N)cc2)c2c3cc(-c4cnc5ccccc5c4)ccc3ncc21 [Dactolisib (NVP-BEZ235)] (drug 1000 nM) : 40.8
Nc1ncn([C@@H]2O[C@H](CO)[C@@H](O)[C@H]2O)c(=O)n1 [Azacitidine] (drug 10000 nM) : 1.3
O=C(c1ccc(OCCN2CCCCC2)cc1)c1c(-c2ccc(O)cc2)sc2cc(O)ccc12 [Raloxifene HCl] (drug 10000 nM) : 44.3
CC1(C)CNc2cc(NC(=O)c3cccnc3NCc3ccncc3)ccc21 [Motesanib (AMG-706)] (drug 10000 nM) : -2.75
Cn1cc(C2=Nc3cc(NC(=O)C(N)C4CCCCC4)cc4c3C2=CNNC4=O)cn1 (stereo unspecified) (drug 10000 nM) : 3.49
Cc1cc(Nc2cc(CN3CCOCC3)c3nc(C)c(Cc4ccc(Cl)cc4F)n3n2)n[nH]1 (drug 10000 nM) : 96.7
CC(C)(C)NC(=O)[C@H]1CC[C@H]2[C@@H]3CC[C@H]4NC(=O)C=C[C@]4(C)[C@H]3CC[C@]12C [Finasteride] (drug 10000 nM) : 27.2
CCc1c(C(=O)C(N)=O)c2c(OCC(=O)O)cccc2n1Cc1ccccc1 [Varespladib] (drug 10000 nM) : -12.8
O=NN(CCCl)C(=O)NC1CCCCC1 [Lomustine] (drug 10000 nM) : 0.268

====

system: T-47D; test: viability inhibition at highest dose (% inhibition); higher = more growth inhibition; details: 4-OH-tamoxifen in medium 0 µM; 72 h
# viability inhibition at highest dose listing for each entry below
value-kind: viability inhibition at highest dose

Nc1cc(C(F)(F)F)c(-c2cc(N3CCOCC3)nc(N3CCOCC3)n2)cn1 [Buparlisib (BKM-120)] (drug 10000 nM) : 75.8
O=C(Nc1ccncc1)C(=O)c1cn(Cc2ccc(Cl)cc2)c2ccccc12 [Indibulin] (drug 10000 nM) : 2.62
OC[C@H]1O[C@@H](n2cnc3c2N=CNC[C@H]3O)C[C@@H]1O [Pentostatin] (drug 10000 nM) : 45.1

====

test system: ZR-75-1; test: relative IC50 (midpoint of fitted logistic curve, plateau may be below 50% inhibition; CellTiter-Glo viability); higher = less potent; conditions: 4-OH-tamoxifen in medium 1 µM; 72 h
value-kind: relative IC50

Cc1cc(Nc2cc(CN3CCOCC3)c3nc(C)c(Cc4ccc(Cl)cc4F)n3n2)n[nH]1 : > 10 µM
Cn1cnc2c(F)c(Nc3ccc(Br)cc3Cl)c(C(=O)NOCCO)cc21 [Selumetinib (AZD6244)] : > 10 µM
CCCC(CCC)C(=O)O [Valproic acid] : > 10 µM
